Species: Homo sapiens
Experiment: Inhibition of human platelet aggregation induced by ADP after 3 min incubation with platelet rich plasma
Assay type: functional
Settings: 0.05 h
pIC50: −log10 of the molar value.
measurement.type: pIC50

• CCC(CC)CN1CCN(S(=O)(=O)CCCOc2ccc3[nH]c4nc(O)nc-4cc3c2)CC1.Cl = 6.80
• Cl.Oc1nc2cc3cc(OCCCCc4nnnn4C4CCN(Cc5ccccc5)CC4)ccc3[nH]c-2n1 = 7.51
• COc1ccc(CN2CCN(S(=O)(=O)CCCOc3ccc4[nH]c5nc(O)nc-5cc4c3)CC2)cc1.Cl = 6.34

a = Cl.O=C(NCCCOc1ccc2[nH]c3nc(O)nc-3cc2c1)N1CCN(CCc2ccccc2)CC1
b = Cl.O=S(=O)(CCCCOc1ccc2[nH]c3nc(O)nc-3cc2c1)C1CCN(CC2CCCCC2)CC1
Exercise: Pick one: a or b . Which one has the lower reported pIC50? In your reply, give the label of the chosen option.
Key: a

----------
Organism: Homo sapiens
Experiment: Inhibition of human platelet aggregation induced by ADP after 3 min incubation with platelet rich plasma
Type: functional
Conditions: 0.05 h
measurement.type: IC50 (nM)

• Cl.Cl.O=S(=O)(CCCOc1ccc2[nH]c3nc(O)nc-3cc2c1)N1CCN(Cc2ccc(Cl)cc2)CC1 = 530
• CCC(CC)CN1CCC(S(=O)(=O)CCCOc2ccc3[nH]c4nc(O)nc-4cc3c2)CC1.Cl = 39
• Cl.O=C(NCCCOc1ccc2[nH]c3nc(O)nc-3cc2c1)N1CCN(c2ccccn2)CC1 = 690
• Cl.O=C(NCCCOc1ccc2[nH]c3nc(O)nc-3cc2c1)N1CCN(Cc2ccsc2)CC1 = 280

A = Cl.Oc1nc2cc3cc(OCCCc4nnnn4C4CCN(Cc5ccc(F)cc5)CC4)ccc3[nH]c-2n1
B = CCCC(CCC)CN1CCC(S(=O)(=O)CCCOc2ccc3[nH]c4nc(O)nc-4cc3c2)CC1.Cl
Exercise: Lab note: record which item had the higher IC50, A or B . Returns: label corresponding to the selected item.
Key: B
(B: 230 nM, A: 32 nM)

----------
Species on record: Homo sapiens
Test: Inhibition of human platelet aggregation induced by ADP after 3 min incubation with platelet rich plasma
Format: functional
Details: 0.05 h
pIC50: −log10 of the molar value.
measurement.type: pIC50

* CCOC(=O)N1CCC(n2nnnc2CCCOc2ccc3[nH]c4nc(O)nc-4cc3c2)CC1 | 6.38
* Cl.Oc1nc2cc3cc(OCCCCc4nnnn4C4CCN(CC5CCCCC5)CC4)ccc3[nH]c-2n1 | 7.70
* Cl.Oc1nc2cc3cc(OCCCc4nnnn4C4CCN(CC5CCCCCC5)CC4)ccc3[nH]c-2n1 | 7.77
* Cl.O=C(NCCCOc1ccc2[nH]c3nc(O)nc-3cc2c1)N1CCN(CCC2CCCCC2)CC1 | 7.14
* CCCC(CCC)CN1CCC(n2nnnc2CCCOc2ccc3[nH]c4nc(O)nc-4cc3c2)CC1.Cl | 7.09

A = CCOC(=O)N1CCC(n2nnnc2CCCCOc2ccc3[nH]c4nc(O)nc-4cc3c2)CC1
B = Cl.O=S(=O)(CCCOc1ccc2[nH]c3nc(O)nc-3cc2c1)N1CCN(CCC2CCCCC2)CC1
C = Cl.Oc1nc2cc3cc(OCCCc4nnnn4C4CCN(CC5CCCCC5)CC4)ccc3[nH]c-2n1
D = CC(C)CN1CCC(n2nnnc2CCCOc2ccc3[nH]c4nc(O)nc-4cc3c2)CC1.Cl
E = Cl.O=C(NCCCOc1ccc2[nH]c3nc(O)nc-3cc2c1)N1CCN(Cc2cccs2)CC1
Exercise: Would you mind ranking these compounds by ascending pIC50? Answer by naming the labels in the order asked.
Key: B, E, A, C, D
(B: 5.69, E: 6.80, A: 7.00, C: 7.80, D: 8.03)

----------
Test: Aqueous solubility
Assay type: physicochemical
Settings: read-out: S
measurement.type: solubility

Use these answered entries as a reference point.
* Cl.Oc1nc2cc3cc(OCCCc4nnnn4C4CCN(CCc5ccccc5)CC4)ccc3[nH]c-2n1 | < 5000 µg/mL
* CC(C)CN1CCC(n2nnnc2CCCOc2ccc3[nH]c4nc(O)nc-4cc3c2)CC1.Cl | > 10000 µg/mL
* Cl.O=C(NCCCOc1ccc2[nH]c3nc(O)nc-3cc2c1)N1CCN(CCc2ccccc2)CC1 | 250 µg/mL
* Cl.O=C(NCCCOc1ccc2[nH]c3nc(O)nc-3cc2c1)N1CCN(Cc2ccc(F)cc2)CC1 | > 20000 µg/mL

Exercise: Retrieve solubility measured for "CC(C)CN1CCC(S(=O)(=O)CCCOc2ccc3[nH]c4nc(O)nc-4cc3c2)CC1.Cl" and print it.
Key: > 10000 µg/mL

Exercise: Supply recorded solubility for "Cl.O=S(=O)(CCCOc1ccc2[nH]c3nc(O)nc-3cc2c1)N1CCN(CCc2ccccc2)CC1" here.
Key: < 10000 µg/mL

----------
This listing pairs molecules with measured solubility.
Assay: Aqueous solubility
Format: physicochemical
Settings: read-out: S

• Cl.Oc1nc2cc3cc(OCCCCc4nnnn4C4CCN(CC5CCCCC5)CC4)ccc3[nH]c-2n1 = > 5000 µg/mL

Let's switch to this molecule now.
Exercise: Assign solubility to the following record: "Cl.O=S(=O)(CCCOc1ccc2[nH]c3nc(O)nc-3cc2c1)C1CCN(Cc2cccc(C(F)(F)F)c2)CC1"
Key: < 5000 µg/mL

----------
Molecular target: Phosphodiesterase 3 (Homo sapiens, UniProt Q14432+Q13370)
Test: Inhibition of human platelet aggregation cAMP PDE in vitro
Format: functional
measurement.type: IC50 (nM)

• CCC(CC)CN1CCC(S(=O)(=O)CCCOc2ccc3[nH]c4nc(O)nc-4cc3c2)CC1.Cl = 1.13
• Cl.O=S(=O)(CCCOc1ccc2[nH]c3nc(O)nc-3cc2c1)C1CCN(CC2CCCCC2)CC1 = 1.13
• Cl.O=C(NCCCOc1ccc2[nH]c3nc(O)nc-3cc2c1)N1CCN(CC2CCCCC2)CC1 = 1.13

----------
Assay: Aqueous solubility
Assay type: physicochemical
Settings: read-out: S
Measured solubility values are reported for all entries that follow.

Some entries whose results are on file:
* Cl.O=S(=O)(CCCOc1ccc2[nH]c3nc(O)nc-3cc2c1)N1CCN(Cc2ccc(F)cc2)CC1 | > 20 mg/mL
* Cl.O=S(=O)(CCCOc1ccc2[nH]c3nc(O)nc-3cc2c1)C1CCN(CC2CCCCO2)CC1 (stereo not drawn) | > 10 mg/mL

Exercise: Quickly give me recorded solubility for "Cl.Oc1nc2cc3cc(OCCCc4nnnn4C4CCNCC4)ccc3[nH]c-2n1"
Key: > 20 mg/mL

----------
Test: Aqueous solubility
Assay type: physicochemical
Settings: read-out: S
measurement.type: solubility (µg/mL)

a = Cl.O=C(NCCCOc1ccc2[nH]c3nc(O)nc-3cc2c1)N1CCN(CC2CCCCCC2)CC1
b = Cl.O=S(=O)(CCCOc1ccc2[nH]c3nc(O)nc-3cc2c1)N1CCN(c2nc3ccccc3s2)CC1
Exercise: Problem: Given the entries a and b , determine which has the lower reported solubility. Your choice should be expressed through its label.
Key: b
(b: 1000 µg/mL, a: 2000 µg/mL)

----------
Assay: Aqueous solubility
Type: physicochemical
Settings: read-out: S
measurement.type: solubility (µg/mL)

* Cl.O=C(NCCCOc1ccc2[nH]c3nc(O)nc-3cc2c1)N1CCN(CCC2CCCCC2)CC1 | 500

a = CCCC(CCC)CN1CCN(C(=O)NCCCOc2ccc3[nH]c4nc(O)nc-4cc3c2)CC1.Cl
b = Cl.O=C(NCCCOc1ccc2[nH]c3nc(O)nc-3cc2c1)N1CCN(Cc2ccsc2)CC1
Exercise: // compare measured solubility, left a , right b , return larger Selection: enter the item's label.
Key: b

----------
Experiment: Aqueous solubility
Assay type: physicochemical
Conditions: read-out: S
This section presents compounds with their documented solubility values.

Observe how each entry below is paired with its result.
- Cl.O=S(=O)(CCCCOc1ccc2[nH]c3nc(O)nc-3cc2c1)C1CCN(CC2CCCCC2)CC1: 2000 µg/mL
- Cl.O=S(=O)(CCCOc1ccc2[nH]c3nc(O)nc-3cc2c1)C1CCN(Cc2ccc(F)cc2)CC1: > 10000 µg/mL

Moving on to another compound below.
Exercise: Look up and state reported solubility for "CCC(CC)CN1CCC(n2nnnc2CCCCOc2ccc3[nH]c4nc(O)nc-4cc3c2)CC1.Cl"
Key: > 5000 µg/mL

----------
Test: Aqueous solubility
Assay type: physicochemical
Details: read-out: S
measurement.type: solubility

Some solved entries appear below for comparison.
- Cl.O=C(NCCCOc1ccc2[nH]c3nc(O)nc-3cc2c1)N1CCN(CC2CCCCO2)CC1 (stereo not drawn): > 20 mg/mL
- Cl.O=C(NCCCOc1ccc2[nH]c3nc(O)nc-3cc2c1)N1CCN(CC2CCCCC2)CC1: > 20 mg/mL

Now consider the entry below.
Exercise: For the molecule "Cl.O=S(=O)(CCCOc1ccc2[nH]c3nc(O)nc-3cc2c1)N1CCN(CCC2CCCCC2)CC1" , give its measured solubility value.
Key: < 5 mg/mL
